Data origin: patent US12643871B2

# Tested on: rice and other crops
# MEASUREMENT DESCRIPTION: Comparison experiment (post-emergence, Tables 4-7), crop safety
# Assay type: in vivo
# ASSAY CONDITIONS: dose of 125, 60, 30, 15 g/ha
OBSERVABLE: safety to rice and other crops compared with the corresponding racemate or S configuration

COMPOUND | MEAS VALUE
CC[S@@+]([O-])c1c(C(F)(F)F)ccc(C(=O)Nc2nnc(C)o2)c1F [Compound 2] | higher safety
CCCC[S@@+]([O-])c1c(C(F)(F)F)ccc(C(=O)Nc2nnc(C)o2)c1F [Compound 4] | higher safety
Cc1nnc(NC(=O)c2ccc(C(F)(F)F)c([S@+]([O-])CCO)c2F)o1 [Compound 54] | higher safety

###

# Tested on: Alopecurus japonicas
# MEASUREMENT DESCRIPTION: Comparison experiment (post-emergence) against racemate / S configuration
# Type: in vivo
# ASSAY CONDITIONS: Table 6, post-seedling test conditions
OBSERVABLE: Results of comparison experiment, Alopecurus japonicas (120 g/ha)
Write the quantity with the unit trailing the number.

Input line: Retrieve Results of comparison experiment, Alopecurus japonicas (120 g/ha) measured for CCSc1c(C(F)(F)F)ccc(C(=O)Nc2nnc(C)o2)c1SC [Control Compound D′] and print it.
Output line: 0%

Input line: Retrieve Results of comparison experiment, Alopecurus japonicas (120 g/ha) measured for CSc1c(C(=O)Nc2nnc(C)o2)ccc(C(F)(F)F)c1[S+](C)[O-] (centres unmarked) [Control Compound E′] and print it.
Output line: 15%

Input line: Retrieve Results of comparison experiment, Alopecurus japonicas (120 g/ha) measured for CCS(=O)(=O)c1c(C(F)(F)F)ccc(C(=O)Nc2nnc(C)o2)c1SC [Control Compound C′] and print it.
Output line: 20%

Input line: Retrieve Results of comparison experiment, Alopecurus japonicas (120 g/ha) measured for CSc1c(C(=O)Nc2nnc(C)o2)ccc(C(F)(F)F)c1[S+](C)[O-] (centres unmarked) [Control Compound F′] and print it.
Output line: 0%

Input line: Retrieve Results of comparison experiment, Alopecurus japonicas (120 g/ha) measured for CC[S@@+]([O-])c1c(C(F)(F)F)ccc(C(=O)Nc2nnc(C)o2)c1SC [Compound 548] and print it.
Output line: 50%

Input line: Retrieve Results of comparison experiment, Alopecurus japonicas (120 g/ha) measured for CSc1c(C(=O)Nc2nnc(C)o2)ccc(C(F)(F)F)c1[S@@+](C)[O-] [Compound 547] and print it.
Output line: 40%

Input line: Retrieve Results of comparison experiment, Alopecurus japonicas (120 g/ha) measured for CC[S+]([O-])c1c(C(F)(F)F)ccc(C(=O)Nc2nnc(C)o2)c1SC (centres unmarked) [Control Compound B′] and print it.
Output line: 0%

Input line: Retrieve Results of comparison experiment, Alopecurus japonicas (120 g/ha) measured for CC[S+]([O-])c1c(C(F)(F)F)ccc(C(=O)Nc2nnc(C)o2)c1SC (centres unmarked) [Control Compound A′, reference compound] and print it.
Output line: 20%
